target: intracellular PLA2 (cytosolic PLA2, cPLA2) (Homo sapiens, UniProt P47712); assay: Intracellular PLA2 (cPLA2) inhibitory activity (14C-arachidonyl phosphatidylcholine substrate); conditions: 2 μM radiolabelled phosphatidylcholine, 1 μM dioleoylglycerol, 1 mM CaCl2, pH 7.4; read-out: c-PLA2 Inhibition IC50
measuredMetric: pIC50
Formally, pIC50 is defined as -log10 of the concentration c, with c in mol/L.

[in] Note down pIC50 recorded for `COc1c(C)c(OC(=O)c2c(C)c(C)c(OCCCOc3ccc(F)cc3)c(C)c2OC)c(C)c(C)c1C(=O)O`
[out] 5.05

[in] Note down pIC50 recorded for `COc1c(C)c(OC(=O)c2c(C)c(C)c(OCCCOc3ccc(F)cc3F)c(C)c2OC)c(C)c(C)c1C(=O)O`
[out] 5.03

[in] Note down pIC50 recorded for `COc1c(C)c(OC(=O)c2c(C)c(C)c(OCCCOc3ccc4ccccc4c3)c(C)c2OC)c(C)c(C)c1C(=O)O`
[out] 5.74

* * *

Molecular target: intracellular PLA2 (cytosolic PLA2, cPLA2) (Homo sapiens)
Sequence (P47712 1-749): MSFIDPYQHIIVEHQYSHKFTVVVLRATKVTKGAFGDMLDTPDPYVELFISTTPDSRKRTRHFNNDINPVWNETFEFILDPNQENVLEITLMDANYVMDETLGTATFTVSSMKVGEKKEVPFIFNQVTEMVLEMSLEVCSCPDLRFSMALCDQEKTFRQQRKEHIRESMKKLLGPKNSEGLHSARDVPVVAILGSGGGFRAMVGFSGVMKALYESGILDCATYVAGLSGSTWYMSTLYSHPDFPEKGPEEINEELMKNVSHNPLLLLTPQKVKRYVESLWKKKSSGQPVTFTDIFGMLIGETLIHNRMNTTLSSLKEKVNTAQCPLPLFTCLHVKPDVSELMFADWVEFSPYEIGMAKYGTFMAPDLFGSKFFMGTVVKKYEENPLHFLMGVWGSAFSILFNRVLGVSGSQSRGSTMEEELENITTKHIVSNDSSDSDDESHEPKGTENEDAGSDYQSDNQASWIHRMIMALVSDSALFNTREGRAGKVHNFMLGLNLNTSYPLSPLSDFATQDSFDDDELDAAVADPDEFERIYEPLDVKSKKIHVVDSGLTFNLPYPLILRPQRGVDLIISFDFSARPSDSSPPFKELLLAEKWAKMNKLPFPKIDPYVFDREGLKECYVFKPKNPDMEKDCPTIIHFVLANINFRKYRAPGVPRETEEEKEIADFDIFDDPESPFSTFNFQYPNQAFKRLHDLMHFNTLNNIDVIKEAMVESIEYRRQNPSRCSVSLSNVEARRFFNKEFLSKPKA
Assay: Intracellular PLA2 (cPLA2) inhibitory activity (14C-arachidonyl phosphatidylcholine substrate)
Conditions: 2 μM radiolabelled phosphatidylcholine, 1 μM dioleoylglycerol, 1 mM CaCl2, pH 7.4; read-out: c-PLA2 Inhibition IC50
Property: pIC50; scope: individual compounds
Formally, pIC50 is defined as -log10 of the concentration c, with c in mol/L.

[in] Note down pIC50 recorded for `COc1cccc(OC)c1OCCCOc1c(C)c(C)c(C(=O)Oc2c(C)c(C)c(C(=O)O)c(OC)c2C)c(OC)c1C`
[out] 4.89

[in] Note down pIC50 recorded for `COc1c(C)c(OC(=O)c2c(C)c(C)c(OCCCN3CCN(C(c4ccccc4)c4ccccc4)CC3)c(C)c2OC)c(C)c(C)c1C(=O)O`
[out] 5.29

[in] Note down pIC50 recorded for `COc1c(C)c(OC(=O)c2c(C)c(C)c(OCCCCCCOc3ccc(Cl)cc3)c(C)c2OC)c(C)c(C)c1C(=O)O`
[out] 5.32
